- assay.target: D-2 receptor (Rattus norvegicus)
- Construct: Striatal tissue is excised, pooled, and homogenized; from tissue; host or cells: rat striatum, washed membrane homogenate
- Sequence (P61169 whole entry): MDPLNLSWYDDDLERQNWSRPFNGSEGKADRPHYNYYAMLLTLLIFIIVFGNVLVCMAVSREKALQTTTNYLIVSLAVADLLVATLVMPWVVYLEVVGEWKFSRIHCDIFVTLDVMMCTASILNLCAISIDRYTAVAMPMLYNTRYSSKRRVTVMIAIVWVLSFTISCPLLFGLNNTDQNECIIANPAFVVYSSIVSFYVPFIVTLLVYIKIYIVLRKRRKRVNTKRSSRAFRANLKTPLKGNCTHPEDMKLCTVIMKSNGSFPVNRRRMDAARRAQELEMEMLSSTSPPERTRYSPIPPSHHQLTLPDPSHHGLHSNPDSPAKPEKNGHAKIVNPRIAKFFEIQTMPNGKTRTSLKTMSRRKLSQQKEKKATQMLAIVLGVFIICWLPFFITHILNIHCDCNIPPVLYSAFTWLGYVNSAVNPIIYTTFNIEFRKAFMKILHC
- experiment.notes: Competitive inhibition assay, 3H-spiperone binding (D-2), rat striatal tissue
- Parameters: species or system rat (male Sprague-Dawley)
- run.parameters: Col. 8; 3H-spiperone 0.2 nM, rat striatum, 37° C., 15 min, pH 7.4; read-out: Ki (nM) 3H-Spip
Catalogue of log10 Ki readings, one per entry.
endpoint: log10 Ki (log10 of the value in nM)

[[record]]
compound = "Cc1cc2c(cc1O)[C@@H]1CCCC[C@H]1N(C)CC2 (relative stereo)"
endpoint = "log10 Ki"
observed_value = 4.85

[[record]]
compound = "Cc1cc2c(cc1O)[C@H]1[C@@H](CC[C@@H]1C)N(C)CC2 (relative stereo)"
endpoint = "log10 Ki"
observed_value = 2.92

[[record]]
compound = "CN1CCc2cc(Cl)c(O)cc2[C@@H]2CCC[C@H]21 (relative stereo)"
endpoint = "log10 Ki"
observed_value = 2.58

[[record]]
compound = "CN1CCc2ccc(O)cc2[C@@H]2CCC[C@H]21 (relative stereo)"
endpoint = "log10 Ki"
observed_value = 3.37

[[record]]
compound = "C[C@H]1CC[C@@H]2[C@@H]1c1cc(O)c(Cl)cc1CCN2C (relative stereo)"
endpoint = "log10 Ki"
observed_value = 2.54

[[record]]
compound = "Oc1cc2c(cc1Cl)CCN[C@@H]1CCC[C@@H]21 (relative stereo)"
endpoint = "log10 Ki"
observed_value = 3.11

[[record]]
compound = "CCCCC(=O)Oc1cc2c(cc1Cl)CCN(C)C1CCCC21 (centres unmarked)"
endpoint = "log10 Ki"
observed_value = 2.25


---

- assay.target: dopamine D-1 receptor (Rattus norvegicus, UniProt P18901)
- Construct: Striatal tissue is excised, pooled, and homogenized; from tissue; host or cells: rat striatum, washed membrane homogenate
- Sequence (P18901 whole entry): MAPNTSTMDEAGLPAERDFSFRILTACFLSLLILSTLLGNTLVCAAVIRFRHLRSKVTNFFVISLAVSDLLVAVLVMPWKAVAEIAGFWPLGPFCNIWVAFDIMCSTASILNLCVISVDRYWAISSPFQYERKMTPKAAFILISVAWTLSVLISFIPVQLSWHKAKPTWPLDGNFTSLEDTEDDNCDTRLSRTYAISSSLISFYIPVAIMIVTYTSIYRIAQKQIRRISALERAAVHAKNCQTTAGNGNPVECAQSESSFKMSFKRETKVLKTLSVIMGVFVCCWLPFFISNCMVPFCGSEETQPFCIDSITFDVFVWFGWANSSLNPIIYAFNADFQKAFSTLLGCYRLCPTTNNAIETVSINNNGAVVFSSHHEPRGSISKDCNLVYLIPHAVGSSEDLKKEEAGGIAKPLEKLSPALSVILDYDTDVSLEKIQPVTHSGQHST
- experiment.notes: Competitive inhibition assay, 3H-SCH 23390 binding (D-1), rat striatal tissue
- Design: species or system rat (male Sprague-Dawley)
- run.parameters: Col. 7; 3H-SCH 23390 0.3 nM, rat striatum, 37° C., 15 min, pH 7.4; read-out: Ki (nM) 3H-Sch23390
endpoint: Ki

[[record]]
molecule = "C[C@H]1CC[C@@H]2[C@@H]1c1cc(O)c(Cl)cc1CCN2C (relative stereo)"
observed_value = "3 nM"

[[record]]
molecule = "CN1CCc2cc(Cl)c(O)cc2[C@@H]2CCC[C@H]21 (relative stereo)"
observed_value = "2.8 nM"

[[record]]
molecule = "Cc1cc2c(cc1O)[C@H]1[C@@H](CC[C@@H]1C)N(C)CC2 (relative stereo)"
observed_value = "14 nM"

[[record]]
molecule = "CCCCC(=O)Oc1cc2c(cc1Cl)CCN(C)C1CCCC21 (centres unmarked)"
observed_value = "24 nM"

[[record]]
molecule = "CN1CCc2ccc(O)cc2[C@@H]2CCC[C@H]21 (relative stereo)"
observed_value = "335 nM"

[[record]]
molecule = "Oc1cc2c(cc1Cl)CCN[C@@H]1CCC[C@@H]21 (relative stereo)"
observed_value = "96 nM"

[[record]]
molecule = "C[C@H]1CC[C@@H]2[C@@H](C1)c1cc(O)c(Cl)cc1CCN2C (relative stereo)"
observed_value = "70 nM"

[[record]]
molecule = "Cc1cc2c(cc1O)[C@@H]1CCCC[C@H]1N(C)CC2 (relative stereo)"
observed_value = "70 nM"

